biological target: Recombinant Human CTLA4-Fc chimera (R&D systems) (human) (UniProt P16410); assay: ELISA, signal over SA
Measured Parameter: ELISA S/N(SA)

Recorded results for 3 binders are shown here.
INSERT INTO results (binder, quantitative_readout) VALUES
  ('GGCWHPFLPIRSLHFCPR (peptide, not shown: large carriers; small tags and cut ends) [C4m#19-5th4w-NN6-39]', 35.6),
  ('GGCLHPFLPIVSWHFCPC (peptide, not shown: large carriers; small tags and cut ends) [C4m#19-5th2w-NNS6-80]', 3.6),
  ('GGCCHPWLPIRSVHFCPF (peptide, not shown: large carriers; small tags and cut ends) [C4m#19-5th2w-NNS6-61]', 4.3);

[a] GGCLHPLLPILSVHFCPS (peptide, not shown: large carriers; small tags and cut ends) [C4m#19-5th4w-NN6-83]
[b] GGCMHPSLPIWSWHFCPH (peptide, not shown: large carriers; small tags and cut ends) [C4m3127-4th-NNS6-19]
[c] GGCFHPYLPIRSWHFCGR (peptide, not shown: large carriers; small tags and cut ends) [C4m#19-5th4w-NN6-9]
[d] GGCAHPYLPIRSVHFCPC (peptide, not shown: large carriers; small tags and cut ends) [C4m#19-5th2w-NNS6-28]
Exercise: Rank by ELISA S/N(SA) (largest to smallest). Give me the labels in the order the question wants.
Solution: c, a, d, b
(c: 28.8, a: 12, d: 6.3, b: 4.1)
